# Measured Target: recombinant mTOR (FLAG-tagged, residues 1362-2549) (Homo sapiens)
# Sequence (P42345 1362-2549): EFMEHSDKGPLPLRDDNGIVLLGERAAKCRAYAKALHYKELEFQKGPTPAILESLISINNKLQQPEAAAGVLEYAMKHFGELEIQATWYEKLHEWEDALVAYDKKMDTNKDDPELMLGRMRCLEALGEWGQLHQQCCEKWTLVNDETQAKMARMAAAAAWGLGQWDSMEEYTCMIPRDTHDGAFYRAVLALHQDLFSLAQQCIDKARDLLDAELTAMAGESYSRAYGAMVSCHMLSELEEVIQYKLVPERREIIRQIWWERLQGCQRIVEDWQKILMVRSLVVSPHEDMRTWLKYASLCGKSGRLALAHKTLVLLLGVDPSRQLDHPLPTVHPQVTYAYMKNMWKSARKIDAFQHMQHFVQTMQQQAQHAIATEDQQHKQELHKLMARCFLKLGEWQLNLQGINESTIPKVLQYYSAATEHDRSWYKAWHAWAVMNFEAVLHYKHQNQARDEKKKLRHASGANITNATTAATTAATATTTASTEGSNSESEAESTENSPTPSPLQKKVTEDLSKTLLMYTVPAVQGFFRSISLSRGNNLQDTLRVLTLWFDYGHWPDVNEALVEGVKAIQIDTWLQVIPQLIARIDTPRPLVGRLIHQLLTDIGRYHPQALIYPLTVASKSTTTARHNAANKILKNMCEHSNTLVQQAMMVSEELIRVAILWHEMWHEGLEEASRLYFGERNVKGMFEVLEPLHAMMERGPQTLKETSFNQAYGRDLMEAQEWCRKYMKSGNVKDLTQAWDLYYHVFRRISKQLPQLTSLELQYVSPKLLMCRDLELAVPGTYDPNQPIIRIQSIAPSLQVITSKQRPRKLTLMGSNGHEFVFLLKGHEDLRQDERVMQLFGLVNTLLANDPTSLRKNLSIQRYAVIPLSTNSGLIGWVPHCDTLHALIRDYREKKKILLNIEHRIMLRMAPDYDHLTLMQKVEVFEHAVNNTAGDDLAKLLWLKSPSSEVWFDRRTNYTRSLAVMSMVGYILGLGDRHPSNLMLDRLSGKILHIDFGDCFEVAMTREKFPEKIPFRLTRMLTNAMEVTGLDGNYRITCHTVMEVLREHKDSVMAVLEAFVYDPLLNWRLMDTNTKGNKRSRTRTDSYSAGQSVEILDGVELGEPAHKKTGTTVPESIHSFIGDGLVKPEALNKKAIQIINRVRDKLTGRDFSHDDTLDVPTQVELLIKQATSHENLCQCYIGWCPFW
# Experimental Protocol: In vitro mTOR kinase assay (Test (a), AlphaScreen)
# Assay type: biochemical
# Conditions Used: ATP 20 μM, read-out: Test (a): IC50 versus mTOR kinase
pIC50: −log10 of the molar value.
Quantity Kind: pIC50

> print(dat)
                                    compound  result
 1  C[C@H]1COCCN1c1cc(C(C)(C)S(C)(=O)=O)nc(-c2ccc(NC(=O)Nc3cc[nH]n3)cc2)n1 [Example 24v]    7.26
 2  C[C@H]1COCCN1c1cc(C(C)(C)S(C)(=O)=O)nc(-c2ccc(NC(=O)NCCN(C)C)cc2)n1 [Example 21i]    7.12
 3  CN(C)CCNC(=O)Nc1ccc(-c2nc(CS(=O)(=O)c3ccccc3)cc(N3CCOCC3)n2)cc1 [Example 20c]    6.00
 4  Cc1cc(C)cc(NC(=O)Nc2ccc(-c3nc(CS(C)(=O)=O)cc(N4CCOCC4)n3)cc2)c1    5.59
 5  CS(=O)(=O)Cc1cc(N2CCOCC2)nc(-c2ccc(NC(=O)Nc3ccc(Cl)cc3)cc2)n1    6.38
 6  C[C@H]1COCCN1c1cc(CO)nc(-c2ccc(NC(=O)Nc3ccccc3)cc2)n1    6.25
 7  C[C@H]1COCCN1c1cc(CNC2CC2)nc(-c2ccc(NC(=O)Nc3ccccc3)cc2)n1 [Example 30b]    6.74
 8  CS(=O)(=O)Cc1cc(N2CCOCC2)nc(-c2ccc(NC(=O)N3CCC(O)CC3)cc2)n1 [Example 45h]    6.85
 9  C[C@H]1COCCN1c1cc(CS(C)(=O)=O)nc(-c2ccc(NC(=O)N3CCC(N(C)C)CC3)cc2)n1 [Example 45ab]    6.41
10  COCCNC(=O)Nc1ccc(-c2nc(CS(C)(=O)=O)cc(N3CCOC[C@@H]3C)n2)cc1    6.77
11  CNC(=O)Nc1ccc(-c2nc(CS(=O)(=O)CCNC(C)=O)cc(N3CCOC[C@@H]3C)n2)cc1 [Example 26b]    7.39
12  CCNC(=O)Nc1ncc(-c2nc(CS(C)(=O)=O)cc(N3CCOC[C@@H]3C)n2)s1 [Example 46b]    8.21
13  C[C@H]1COCCN1c1cc(CS(C)(=O)=O)nc(-c2cnc(NC(=O)Nc3ccc(F)cc3)s2)n1 [Example 46d]    6.07
14  C[C@H]1COCCN1c1cc(CS(=O)(=O)c2ccccc2)nc(-c2ccc(NC(=O)Nc3ccccc3)cc2)n1    6.64
15  CC(C)S(=O)(=O)Cc1cc(N2CCOCC2)nc(-c2ccc(NC(=O)NCCN(C)C)cc2)n1 [Example 20n]    6.07
